- Method Notes: Comparison of synovial fluid rifamycin levels, sodium salt vs arginine salt (Table 2)
- Type: in vivo, patients
- Settings: human, synovial fluid; 4h, equivalent to 500 mg rifamycin SV, mean of eight determinations
Counter-ions that a name gives are not always drawn.
Measured concentration at 4 h accompanies every entry in the list below.
Form entry: value (µg/mL) — number only.

What the record says about CO[C@H]1/C=C/O[C@@]2(C)Oc3c(C)c(O)c4c(O)c(cc(O)c4c3C2=O)NC(=O)/C(C)=C\C=C\[C@H](C)[C@H](O)[C@@H](C)[C@@H](O)[C@@H](C)[C@H](OC(C)=O)[C@@H]1C [rifamycin SV sodium salt, reference compound] : concentration at 4 h is 439

***
Form field concentration at 4 h, entry COC1C=COC2(C)Oc3c(C)c(O)c4c(O)c(cc(O)c4c3C2=O)NC(=O)C(C)=CC=CC(C)C(O)C(C)C(O)C(C)C(OC(C)=O)C1C [L-arginine salt of rifamycin SV, rifamycin SV salt with arginine] : 750

* * *

- Method Notes: clinical
- Settings: human, in vivo
Counter-ions that a name gives are not always drawn.
Measure: concentration at 0.25 h (µg/mL)
Lab book: enter the figure in µg/mL, no units written.

Value of concentration at 0.25 h reported for the compound COC1C=COC2(C)Oc3c(C)c(O)c4c(O)c(cc(O)c4c3C2=O)NC(=O)C(C)=CC=CC(C)C(O)C(C)C(O)C(C)C(OC(C)=O)C1C [L-arginine salt of rifamycin SV, rifamycin SV salt with arginine] is 4930

* * *

- Method Notes: Comparison of synovial fluid rifamycin levels, sodium salt vs arginine salt (Table 2)
- Assay type: in vivo, patients
- Settings: human, synovial fluid; 8h, equivalent to 500 mg rifamycin SV, mean of eight determinations
Counter-ions that a name gives are not always drawn.
Measure: concentration at 8 h
Write your answer as a measured quantity: the number, then the unit.

Given item CO[C@H]1/C=C/O[C@@]2(C)Oc3c(C)c(O)c4c(O)c(cc(O)c4c3C2=O)NC(=O)/C(C)=C\C=C\[C@H](C)[C@H](O)[C@@H](C)[C@@H](O)[C@@H](C)[C@H](OC(C)=O)[C@@H]1C [rifamycin SV sodium salt, reference compound] , the value recorded as its concentration at 8 h is 140 µg/mL

Here is the next item to consider.
concentration at 8 h reported for this compound COC1C=COC2(C)Oc3c(C)c(O)c4c(O)c(cc(O)c4c3C2=O)NC(=O)C(C)=CC=CC(C)C(O)C(C)C(O)C(C)C(OC(C)=O)C1C [L-arginine salt of rifamycin SV, rifamycin SV salt with arginine] : 173 µg/mL

* * *

Catalogue of compounds with associated concentration at 2 h
- Method Notes: Comparison of synovial fluid rifamycin levels, sodium salt vs arginine salt (Table 2)
- Format: in vivo, patients
- Settings: human, synovial fluid; 2h, equivalent to 500 mg rifamycin SV, mean of eight determinations
Counter-ions that a name gives are not always drawn.
Please append the unit to your numeric answer.

The recorded concentration at 2 h for COC1C=COC2(C)Oc3c(C)c(O)c4c(O)c(cc(O)c4c3C2=O)NC(=O)C(C)=CC=CC(C)C(O)C(C)C(O)C(C)C(OC(C)=O)C1C [L-arginine salt of rifamycin SV, rifamycin SV salt with arginine] is 1730 µg/mL

Shift focus to the following entry.
Summary for this compound, CO[C@H]1/C=C/O[C@@]2(C)Oc3c(C)c(O)c4c(O)c(cc(O)c4c3C2=O)NC(=O)/C(C)=C\C=C\[C@H](C)[C@H](O)[C@@H](C)[C@@H](O)[C@@H](C)[C@H](OC(C)=O)[C@@H]1C [rifamycin SV sodium salt, reference compound] : concentration at 2 h is 485 µg/mL

* * *

- Method Notes: Comparison of synovial fluid rifamycin levels, sodium salt vs arginine salt (Table 2)
- Format: in vivo, patients
- Settings: human, synovial fluid; 5', equivalent to 500 mg rifamycin SV, mean of eight determinations
Where a name gives a salt, the structure may show the parent alone.
Measure: concentration at 5 min
Your reply should be a number followed by the unit it is expressed in.

For CO[C@H]1/C=C/O[C@@]2(C)Oc3c(C)c(O)c4c(O)c(cc(O)c4c3C2=O)NC(=O)/C(C)=C\C=C\[C@H](C)[C@H](O)[C@@H](C)[C@@H](O)[C@@H](C)[C@H](OC(C)=O)[C@@H]1C [rifamycin SV sodium salt, reference compound] the compound record lists concentration at 5 min as 6700 µg/mL

Let's switch to this compound now.
get_value(item= COC1C=COC2(C)Oc3c(C)c(O)c4c(O)c(cc(O)c4c3C2=O)NC(=O)C(C)=CC=CC(C)C(O)C(C)C(O)C(C)C(OC(C)=O)C1C [L-arginine salt of rifamycin SV, rifamycin SV salt with arginine] , readout=concentration at 5 min) returns 7160 µg/mL

* * *

Property: concentration at 1 h; scope: individual molecules
- Method Notes: Comparison of synovial fluid rifamycin levels, sodium salt vs arginine salt (Table 2)
- Format: in vivo, patients
- Settings: human, synovial fluid; 1h, equivalent to 500 mg rifamycin SV, mean of eight determinations
Where a name gives a salt, the structure may show the parent alone.
Numeric answer only, unit µg/mL assumed.

The recorded concentration at 1 h for entry CO[C@H]1/C=C/O[C@@]2(C)Oc3c(C)c(O)c4c(O)c(cc(O)c4c3C2=O)NC(=O)/C(C)=C\C=C\[C@H](C)[C@H](O)[C@@H](C)[C@@H](O)[C@@H](C)[C@H](OC(C)=O)[C@@H]1C [rifamycin SV sodium salt, reference compound] equals 1530

Proceeding to the next molecule to report its concentration at 1 h.
Summary for this molecule, COC1C=COC2(C)Oc3c(C)c(O)c4c(O)c(cc(O)c4c3C2=O)NC(=O)C(C)=CC=CC(C)C(O)C(C)C(O)C(C)C(OC(C)=O)C1C [L-arginine salt of rifamycin SV, rifamycin SV salt with arginine] : concentration at 1 h is 3850
